Data provenance is the supplement of paper PMC9112550.

- Tested on: Escherichia coli TOP10;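 further: peptides expressed intracellularly from a pBAD plasmid library in pooled LB shake-flask culture, induced with 0.3% L-arabinose, DNA abundance read by NGS, three biological replicates, DESeq2 with apeglm shrinkage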
- test_details: shrunken log2 fold change of peptide-encoding DNA abundance (4.5 h post-induction vs induction); higher = less antimicrobial activity (less host growth inhibition)
- condition_summary: time post-induction: 4.5 h; library: site-saturation at positions 5, 18, 19, 20
reported_metric: shrunken log2 fold change

biopolymer_sequence=RRIRTRPPRLPRPRPRPMFGPRP val=0.115
biopolymer_sequence=RRIRMRPPRLPRPRPRPMLNPRP val=-0.0171
biopolymer_sequence=RRIRWRPPRLPRPRPRPGPQPRP val=0.938
biopolymer_sequence=RRIRIRPPRLPRPRPRPTHYPRP val=-0.392
biopolymer_sequence=RRIRKRPPRLPRPRPRPFKRPRP val=-0.00663
biopolymer_sequence=RRIRNRPPRLPRPRPRPFPHPRP val=-0.0462
biopolymer_sequence=RRIRVRPPRLPRPRPRPCMNPRP val=-0.31
biopolymer_sequence=RRIRYRPPRLPRPRPRPWCTPRP val=-1.06
biopolymer_sequence=RRIRMRPPRLPRPRPRPRQTPRP val=0.0189
biopolymer_sequence=RRIRKRPPRLPRPRPRPIVKPRP val=-0.158
biopolymer_sequence=RRIRHRPPRLPRPRPRPWFTPRP val=-0.0018
biopolymer_sequence=RRIRRRPPRLPRPRPRPKTEPRP val=0.452
biopolymer_sequence=RRIRNRPPRLPRPRPRPWQTPRP val=0.0295
biopolymer_sequence=RRIRLRPPRLPRPRPRPCVQPRP val=-0.0514
biopolymer_sequence=RRIRLRPPRLPRPRPRPRRLPRP val=0.18
